- MEASURED TARGET: T1, CD8α-Fc fusion protein (human)
- T1 construct: also called CD8 α-Fc protein; CD8α-Fc tag antigen
- T1 sequence (chain, as listed by the source): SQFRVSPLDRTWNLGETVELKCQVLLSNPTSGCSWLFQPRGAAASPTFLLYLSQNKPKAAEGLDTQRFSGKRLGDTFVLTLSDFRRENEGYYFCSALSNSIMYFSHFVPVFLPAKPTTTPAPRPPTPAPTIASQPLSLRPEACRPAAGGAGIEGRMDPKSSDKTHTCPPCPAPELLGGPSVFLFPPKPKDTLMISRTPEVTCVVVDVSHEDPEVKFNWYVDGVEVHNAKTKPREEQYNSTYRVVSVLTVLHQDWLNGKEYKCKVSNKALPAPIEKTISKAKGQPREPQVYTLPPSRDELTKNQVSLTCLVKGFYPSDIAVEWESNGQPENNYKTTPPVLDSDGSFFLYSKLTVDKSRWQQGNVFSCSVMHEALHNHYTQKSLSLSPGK
- EXPERIMENT NOTES: ELISA on coated CD8α-Fc, anti-his-HRP, four-parameter fit
So I've got a bunch of binders here, and I need their EC50 values.
Give bare numbers, in ng/mL.

{"BINDER": "C27-cHis antibody (VHH, HEK293 construct; an E. coli preparation is also described) VHH: QLQLVESGGGLVQPGGSLRLSCVVSGSIFAINTMGWYRQAPGKQRELVATMHSGGSTNYADSVKGRFTISRDAAPKTVYLQMNSLKPADTAVYYCHADDSGWGTVDSWGQGIQVTVSS", "MEASUREMENT KIND": "EC50", "NUMERIC VALUE": 2.28}

Provide EC50 for all items below, preserving their order.
1. S13-cHis antibody (VHH, HEK293 construct; an E. coli preparation is also described) VHH: QLQLVESGGGLVQPGGSLRLSCVVSGSIFAINTMGWYRQAPGKQRELVATMHSYGSTNYADSVKGRFTISRDNAKKTVYLQMNSLKPADTAVYYCHADDTGWGTVDSWGQGTQVTVSS
2. C46-cHis antibody (VHH, HEK293 construct; an E. coli preparation is also described; Biotinylated for the ForteBio assay; also called SNA006c; SNA006-c) VHH: QVQLVESGGGLVQAGGSLRLSCAASGVTFDDLAIGWFRQVPGKGREGVSTIGTSDGTAYYADSVKGRFTISSDNAKNTVYLQMNSLKPEDTAVYYCAVDLDYGLGSLLPMGYDYWGQGTQVTVSS
3. C42-cHis antibody (VHH, HEK293 construct; an E. coli preparation is also described; Biotinylated for the ForteBio assay; also called SNA006b; SNA006-b) VHH: QVQLVESGGGLVQAGGSLRLSCAASGLTFEDYAIGWFRQAPGKEREGISCIRIYDGNTYSAESVKGRFTISSDNAKNQVYLQINTLKPEDTAVYYCAAGSYYSCSVYPDYDMDYWGKGTLVTVSS

1: 2.89; 2: 1.82; 3: 1.18
